Just for reference, patent US5212176A is where these values come from.

Experiment: acute toxicity, intravenous administration in adult male mice
Format: in vivo
Conditions: mouse, in vivo, adult male mice
Structures can show the parent of a compound that is named as a salt.
Items are presented alongside their recorded LD50.
value.kind: LD50

                                   compound  result_value
0  COc1cc2nc(N3CCN(C(=O)[C@@H]4CCCO4)CC3)nc(N)c2cc1OC [S(-)]     205 mg/kg
1  COc1cc2nc(N3CCN(C(=O)C4CCCO4)CC3)nc(N)c2cc1OC (racemic) [Racemic, reference compound]     248 mg/kg
2  COc1cc2nc(N3CCN(C(=O)[C@H]4CCCO4)CC3)nc(N)c2cc1OC [R(+), hydrochloride]     307 mg/kg
